All values here come from patent US20230144436A1.

Would you mind telling me the reported % knockdown of DMPK in NHP cells using Antibody-DMPK ASO conjugate of each entry?
# System: DMPK
# assay.comment: DMPK knockdown by anti-TfR1 antibody-oligonucleotide conjugates in NHP myotubes
# Type: cell-based, non-human primate
# recorded.conditions: conjugate with control DMPK-ASO, 72 hours, concentration not stated (0.5, 5, 50 nM tested)
Note: unit % is implicit; provide only the numeric part.

% knockdown of DMPK in NHP cells using Antibody-DMPK ASO conjugate reading for 9-D4 (antibody, V domains shown) VH: QVQLQQSGTELARPGASVKLSCKASGFTFTDYGINWVKQRTGQGLEWIGEIYPSSGNSYYNEKFKAKATLTADKSSSTAYMELRSLTSEDSAVYFCARSTYYGSPIDYWGQGTTLTVSS VL: DIVMTQSHKFMSTPVGDRVSITCKASQDVDTTVAWYQQKPGQSPKLLIYWASTRQIGVPDRFTGSGSGTDFTLTISNVQSEDLADYFCQQYSTYPLTFGGGTKLEIK : 42

% knockdown of DMPK in NHP cells using Antibody-DMPK ASO conjugate reading for 8-K6 (antibody, V domains shown) VH: QVHLQQPGAELVKPGASVKMSCKASGYTFTSYWITWVKQRPGQGLEWIGDIFPNSGRTNYDEKFKSKATLTVDTSSSTAYMQLSSLTSEDSAVYFCAREGNFGSLDYWGQGTTLTVSS VL: QIVLTQSPAIMSASPGEKVTMTCSANSNLNYMNWYHQKSGTSPKRWIYDTSKLASGVPARFSASGSGTSYSLTISSMEAEDAATYYCQQWSRNPLTFGAGTRLELK : 73

% knockdown of DMPK in NHP cells using Antibody-DMPK ASO conjugate reading for 8-O17 (antibody, V domains shown) VH: QVQLKESGPGLVAPSQSLSITCTVSGFSLTNYGVHWVRQPPGKGLEWLVVIWNDGSATYNSALESRLSISKDNSKSQVFLKMNSLQTDDTAMYYCARHESSNPFAYWGQGTLVTVSA VL: DILLTQSPAILSVSPGERVSFSCRASQSIGTSIHWYQQRTNGSPRLLIKSASESIAGIPSRFSGSGSGTDFTLSINSVESEDIADYYCQQNNRWPYTFGGGTKLEIK : 26
